Test system: CAF#7 (primary prostate cancer-associated fibroblasts of myCAF-like type)
Test Method Notes: drug sensitivity score (DSS2, normalised partial AUC of dose-response, 72 h CellTiter-Glo viability) (DSS (dimensionless)); higher = more sensitive (stronger growth inhibition / cytotoxicity); extreme values may be limits of the assay
Quantity Measured: drug sensitivity score
Please give only the number in your answer, with no unit.

Ask: Output measured drug sensitivity score for this item: CN1CCN(c2ccc3nc(-c4c(N)c5c(F)cccc5[nH]c4=O)[nH]c3c2)CC1 [Dovitinib] (tested concentration range 1-10000 nM)
Result: 0

Ask: Output measured drug sensitivity score for this item: CS(=O)(=O)c1ccc(C(=O)Nc2ccc(Cl)c(-c3ccccn3)c2)c(Cl)c1 [Vismodegib] (tested concentration range 1-10000 nM)
Result: 0

Ask: Output measured drug sensitivity score for this item: C=CC(=O)Nc1cccc(Nc2nc(Nc3ccc(N4CCN(C(C)=O)CC4)cc3OC)ncc2C(F)(F)F)c1 [Rociletinib] (tested concentration range 0.5-5000 nM)
Result: 4

Ask: Output measured drug sensitivity score for this item: CC1(C)CNc2cc(NC(=O)c3cccnc3NCc3ccncc3)ccc21 [Motesanib] (tested concentration range 1-10000 nM)
Result: 3.7

Ask: Output measured drug sensitivity score for this item: C=C1C[C@@H]2[C@H](CC[C@]3(C)C(=O)CC[C@@H]23)[C@@]2(C)C=CC(=O)C=C12 [Exemestane] (tested concentration range 1-10000 nM)
Result: 0

Ask: Output measured drug sensitivity score for this item: CNC(=O)c1cc(Oc2ccc(NC(=O)Nc3ccc(Cl)c(C(F)(F)F)c3)cc2)ccn1 [Sorafenib] (tested concentration range 0.1-1000 nM)
Result: 0

Ask: Output measured drug sensitivity score for this item: NC(=O)c1cccc2cn(-c3ccc([C@@H]4CCCNC4)cc3)nc12 [Niraparib] (tested concentration range 1-10000 nM)
Result: 3.7

Ask: Output measured drug sensitivity score for this item: Cc1sc2c(c1C)C(c1ccc(Cl)cc1)=N[C@@H](CC(=O)Nc1ccc(OCCOCCOCCOCCNc3cccc4c3C(=O)N(C3CCC(=O)NC3=O)C4=O)cc1)c1nnc(C)n1-2 (stereo not given in full) [ARV-825] (tested concentration range 0-300 nM)
Result: 17.1

Ask: Output measured drug sensitivity score for this item: COc1cc([C@@H]2c3cc4c(cc3[C@@H](O[C@@H]3O[C@@H]5CO[C@@H](c6cccs6)O[C@H]5[C@H](O)[C@H]3O)[C@H]3COC(=O)[C@H]23)OCO4)cc(OC)c1O [Teniposide] (tested concentration range 1-10000 nM)
Result: 0

Ask: Output measured drug sensitivity score for this item: N#Cc1ccc(C(c2ccc(C#N)cc2)n2cncn2)cc1 [Letrozole] (tested concentration range 1-10000 nM)
Result: 0

Ask: Output measured drug sensitivity score for this item: O=C(O)CNC(=O)c1c(O)c2ccccc2n(Cc2ccccc2)c1=O [IOX-2] (tested concentration range 2.5-25000 nM)
Result: 0

Ask: Output measured drug sensitivity score for this item: C[C@H]1O[C@@H](O[C@H]2[C@@H](O)C[C@H](O[C@H]3[C@@H](O)C[C@H](O[C@H]4CC[C@@]5(C)[C@H](CC[C@@H]6[C@@H]5C[C@@H](O)[C@]5(C)[C@@H](C7=CC(=O)OC7)CC[C@]65O)C4)O[C@@H]3C)O[C@@H]2C)C[C@H](O)[C@@H]1O [Digoxin] (tested concentration range 0.1-1000 nM)
Result: 11.2

Ask: Output measured drug sensitivity score for this item: CC(C)C[C@@H](C(=O)N[C@H](C(=O)OC1CCCC1)c1ccccc1)[C@H](O)C(=O)NO [Tosedostat] (tested concentration range 1-10000 nM)
Result: 5.1

Ask: Output measured drug sensitivity score for this item: CO[C@H]1C[C@@H]2CC[C@@H](C)[C@@](O)(O2)C(=O)C(=O)N2CCCC[C@H]2C(=O)O[C@H]([C@H](C)C[C@@H]2CC[C@@H](OC(=O)C(C)(CO)CO)[C@H](OC)C2)CC(=O)[C@H](C)/C=C(\C)[C@@H](O)[C@@H](OC)C(=O)[C@H](C)C[C@H](C)/C=C/C=C/C=C/1C [Temsirolimus] (tested concentration range 0-100 nM)
Result: 6

Ask: Output measured drug sensitivity score for this item: Nc1nc2[nH]cc(CCc3ccc(C(=O)N[C@@H](CCC(=O)O)C(=O)O)cc3)c2c(=O)[nH]1 [Pemetrexed] (tested concentration range 1-10000 nM)
Result: 0

Ask: Output measured drug sensitivity score for this item: CCS(=O)(=O)N1CC(CC#N)(n2cc(-c3ncnc4[nH]ccc34)cn2)C1 [Baricitinib] (tested concentration range 0.2-2500 nM)
Result: 0

Ask: Output measured drug sensitivity score for this item: Cc1c(C(=O)Nc2ccc(N3C[C@@H](C)O[C@@H](C)C3)nc2)cccc1-c1ccc(OC(F)(F)F)cc1 [Sonidegib] (tested concentration range 1-10000 nM)
Result: 0

Ask: Output measured drug sensitivity score for this item: C=CC(=O)Nc1cc(Nc2nccc(-c3cn(C)c4ccccc34)n2)c(OC)cc1N(C)CCN(C)C [Osimertinib] (tested concentration range 0.2-2500 nM)
Result: 4.2

Ask: Output measured drug sensitivity score for this item: O=C(O)C1(C(=O)O)CCC1.[NH2-].[NH2-].[Pt+2] [Carboplatin] (tested concentration range 10-100000 nM)
Result: 0.4

Ask: Output measured drug sensitivity score for this item: CCN(CC)CCOc1ccc(C(=C(Cl)c2ccccc2)c2ccccc2)cc1 [Clomifene] (tested concentration range 1-10000 nM)
Result: 3.7

====

Test system: CAF#2 (primary prostate cancer-associated fibroblasts of iCAF-like type)
Test Method Notes: drug sensitivity score (DSS2, normalised partial AUC of dose-response, 72 h CellTiter-Glo viability) (DSS (dimensionless)); higher = more sensitive (stronger growth inhibition / cytotoxicity); extreme values may be limits of the assay
Please provide measured drug sensitivity score for the entries that follow.
Please give only the number in your answer, with no unit.

Ask: Provide drug sensitivity score, recorded with CAF#2, of N#Cc1ccc(COC[C@H]2O[C@@H](n3c(NCc4ccc(Cl)c(Cl)c4)nc4c(N)ncnc43)[C@H](O)[C@@H]2O)cc1 (tested concentration range 1-10000 nM)
Result: 5.7

Ask: Provide drug sensitivity score, recorded with CAF#2, of Cc1ncc(Cl)cc1NCc1ccc(C(=O)N[C@@H](CC2CCCC2)C(=O)NC2CC2)s1 (tested concentration range 0.5-5000 nM)
Result: 3

Ask: Provide drug sensitivity score, recorded with CAF#2, of NC(=O)NO [Hydroxyurea] (tested concentration range 100-1000000 nM)
Result: 5.5

Ask: Provide drug sensitivity score, recorded with CAF#2, of O=c1[nH]c(=O)n([C@H]2C[C@H](O)[C@@H](CO)O2)cc1F [Floxuridine] (tested concentration range 1-10000 nM)
Result: 4.3

Ask: Provide drug sensitivity score, recorded with CAF#2, of CO[C@H]1C(=O)[C@]2(C)[C@@H](OC)C[C@H]3OC[C@@]3(OC(C)=O)[C@H]2[C@H](OC(=O)c2ccccc2)[C@]2(O)C[C@H](OC(=O)[C@H](O)[C@@H](NC(=O)OC(C)(C)C)c3ccccc3)C(C)=C1C2(C)C [Cabazitaxel] (tested concentration range 0.1-1000 nM)
Result: 18.1

Ask: Provide drug sensitivity score, recorded with CAF#2, of O=C(CCCCCCC(=O)Nc1ccc([C@H]2O[C@@H](CSc3nc(-c4ccccc4)c(-c4ccccc4)o3)C[C@@H](c3ccc(CO)cc3)O2)cc1)NO [Tubacin] (tested concentration range 1-10000 nM)
Result: 2.4

====

Tested on: CAF#2
Test Method Notes: drug sensitivity score (DSS2, normalised partial AUC of dose-response, 72 h CellTiter-Glo viability) (DSS (dimensionless)); higher = more sensitive (stronger growth inhibition / cytotoxicity); extreme values may be limits of the assay
Use 4 as the dividing line for drug sensitivity score, with the line itself on the True side and lower values as False.

Ask: Please indicate if the recorded drug sensitivity score for CCN(CC)CCNC(=O)c1c(C)[nH]c(/C=C2\C(=O)Nc3ccc(F)cc32)c1C [Sunitinib] (tested concentration range 0.1-1000 nM) meets or exceeds 4.
Result: False

Ask: Please indicate if the recorded drug sensitivity score for Cc1nc(=O)c2cc(CN(C)c3ccc(C(=O)N[C@@H](CCC(=O)O)C(=O)O)s3)ccc2[nH]1 [Raltitrexed] (tested concentration range 0.1-1000 nM) meets or exceeds 4.
Result: True

Ask: Please indicate if the recorded drug sensitivity score for CC(C)NC(=O)COc1cccc(-c2nc(Nc3ccc4[nH]ncc4c3)c3ccccc3n2)c1 [KD025] (tested concentration range 0.5-5000 nM) meets or exceeds 4.
Result: False

Ask: Please indicate if the recorded drug sensitivity score for C[C@H]1C[C@@H](n2c(Nc3ccc(OC(F)(F)F)cc3)nc3cc(CCC(=O)O)ccc32)CC(C)(C)C1 (tested concentration range 1-10000 nM) meets or exceeds 4.
Result: False

Ask: Please indicate if the recorded drug sensitivity score for CN[C@@H](C)C(=O)N[C@H]1CN(C(=O)CC(C)C)CC[C@H]2CC[C@@H](C(=O)NC(c3ccccc3)c3ccccc3)N2C1=O [AT-406] (tested concentration range 1-10000 nM) meets or exceeds 4.
Result: False

Ask: Please indicate if the recorded drug sensitivity score for C=CC(=O)Nc1cc(Nc2nccc(-c3cn(C)c4ccccc34)n2)c(OC)cc1N(C)CCN(C)C [Osimertinib] (tested concentration range 0.2-2500 nM) meets or exceeds 4.
Result: True

Ask: Please indicate if the recorded drug sensitivity score for CC(=O)O[C@@]12CO[C@@H]1C[C@H](O)[C@@]1(C)C(=O)[C@H](O)C3=C(C)[C@@H](OC(=O)[C@H](O)[C@@H](NC(=O)OC(C)(C)C)c4ccccc4)C[C@@](O)([C@@H](OC(=O)c4ccccc4)[C@H]21)C3(C)C [Docetaxel] (tested concentration range 0.1-1000 nM) meets or exceeds 4.
Result: True

Ask: Please indicate if the recorded drug sensitivity score for CN(C)C(=O)c1cc2cnc(Nc3ccc(N4CCNCC4)cn3)nc2n1C1CCCC1 [Ribociclib] (tested concentration range 1-10000 nM) meets or exceeds 4.
Result: True

Ask: Please indicate if the recorded drug sensitivity score for O=C(Nc1ccc(OC(F)(F)Cl)cc1)c1cnc(N2CC[C@@H](O)C2)c(-c2cc[nH]n2)c1 [Asciminib] (tested concentration range 0.1-1000 nM) meets or exceeds 4.
Result: False

Ask: Please indicate if the recorded drug sensitivity score for CN1CC[C@@H](NC(=O)Nc2ccc(C#N)cc2)C[C@@H]1c1nc2ccccc2[nH]1 [Glasdegib] (tested concentration range 0.1-1000 nM) meets or exceeds 4.
Result: False

Ask: Please indicate if the recorded drug sensitivity score for Nc1ncnc2c1c(COc1cccc(Cl)c1)nn2C1CCOCC1 (tested concentration range 1-10000 nM) meets or exceeds 4.
Result: False

Ask: Please indicate if the recorded drug sensitivity score for CC[C@@H]1C(=O)OC[C@@H]1Cc1cncn1C [Pilocarpine] (tested concentration range 4-40000 nM) meets or exceeds 4.
Result: False

Ask: Please indicate if the recorded drug sensitivity score for O=C(O)CNC(=O)c1c(O)c2ccccc2n(Cc2ccccc2)c1=O [IOX-2] (tested concentration range 2.5-25000 nM) meets or exceeds 4.
Result: False

Ask: Please indicate if the recorded drug sensitivity score for C[C@]12C=CC(=O)C=C1CC[C@@H]1[C@@H]2[C@@H](O)C[C@@]2(C)[C@H]1CC[C@]2(O)C(=O)CO [Prednisolone] (tested concentration range 1-10000 nM) meets or exceeds 4.
Result: False

Ask: Please indicate if the recorded drug sensitivity score for CC(C)Nc1cc(-c2c[nH]c(C(=O)N[C@H](CO)c3cccc(Cl)c3)c2)c(Cl)cn1 [Ulixertinib] (tested concentration range 1-10000 nM) meets or exceeds 4.
Result: False

Ask: Please indicate if the recorded drug sensitivity score for COc1cc(N2CCN(C)CC2)ccc1Nc1nccc(-c2cn(C)c3cnccc23)n1 [AZ191] (tested concentration range 1-10000 nM) meets or exceeds 4.
Result: True

Ask: Please indicate if the recorded drug sensitivity score for NC(=O)/C(=C/n1cnc(-c2cc(C(F)(F)F)cc(C(F)(F)F)c2)n1)c1cncnc1 [Eltanexor] (tested concentration range 1-10000 nM) meets or exceeds 4.
Result: True

Ask: Please indicate if the recorded drug sensitivity score for C[C@@H]1CCN(C(=O)CC#N)C[C@@H]1N(C)c1ncnc2[nH]ccc12 [Tofacitinib] (tested concentration range 0.5-5000 nM) meets or exceeds 4.
Result: False

Ask: Please indicate if the recorded drug sensitivity score for O=C1CCC(N2C(=O)c3ccccc3C2=O)C(=O)N1 (configuration not stated) [Thalidomide] (tested concentration range 1-10000 nM) meets or exceeds 4.
Result: False

Ask: Please indicate if the recorded drug sensitivity score for COc1cc2c(NC3CCN(C(C)C)CC3)nc(N3CCC(F)(F)CC3)nc2cc1OCCCN1CCCC1 [UNC0642] (tested concentration range 1-10000 nM) meets or exceeds 4.
Result: False
